TARGET_DESC: UniProt:O75385
Sequence (O75385 whole entry, species assumed): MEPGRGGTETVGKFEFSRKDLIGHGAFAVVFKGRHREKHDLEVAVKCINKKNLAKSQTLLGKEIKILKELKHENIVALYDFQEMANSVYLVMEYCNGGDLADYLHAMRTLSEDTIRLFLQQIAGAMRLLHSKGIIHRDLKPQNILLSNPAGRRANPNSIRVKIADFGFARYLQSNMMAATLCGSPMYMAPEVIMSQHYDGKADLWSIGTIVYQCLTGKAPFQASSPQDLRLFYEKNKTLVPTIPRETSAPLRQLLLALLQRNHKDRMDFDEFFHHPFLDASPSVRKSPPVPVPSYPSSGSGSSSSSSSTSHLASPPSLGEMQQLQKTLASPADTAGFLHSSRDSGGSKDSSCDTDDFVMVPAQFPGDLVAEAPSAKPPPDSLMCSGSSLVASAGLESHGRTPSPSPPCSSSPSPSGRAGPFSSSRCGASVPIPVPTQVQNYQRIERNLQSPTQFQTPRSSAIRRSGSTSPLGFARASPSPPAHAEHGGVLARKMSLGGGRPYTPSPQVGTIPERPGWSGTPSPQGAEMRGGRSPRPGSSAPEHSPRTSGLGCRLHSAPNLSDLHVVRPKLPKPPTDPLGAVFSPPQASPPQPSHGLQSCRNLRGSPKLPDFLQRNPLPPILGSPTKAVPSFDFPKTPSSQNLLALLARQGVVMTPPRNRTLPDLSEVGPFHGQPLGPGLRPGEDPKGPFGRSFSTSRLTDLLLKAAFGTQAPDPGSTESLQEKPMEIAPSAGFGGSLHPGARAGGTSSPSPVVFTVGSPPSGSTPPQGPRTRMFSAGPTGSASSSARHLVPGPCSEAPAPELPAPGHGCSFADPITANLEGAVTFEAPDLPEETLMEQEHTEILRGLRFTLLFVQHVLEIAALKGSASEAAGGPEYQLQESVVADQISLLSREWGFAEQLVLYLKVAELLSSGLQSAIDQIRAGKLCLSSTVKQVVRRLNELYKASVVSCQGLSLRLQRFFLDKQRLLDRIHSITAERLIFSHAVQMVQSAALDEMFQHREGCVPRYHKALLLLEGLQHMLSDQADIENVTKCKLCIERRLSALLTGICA
pIC50: −log10 of the molar value.
Entries annotated with measured pIC50

Field: example entries. Status: answers known.
**Query** Missing value: pIC50, UniProt:O75385, entry Clc1cnc(Nc2ccccc2)nc1Nc1ccccc1 . Fill in?
**Result** < 5.70

**Query** Missing value: pIC50, UniProt:O75385, entry O=C1CCc2cc(Nc3ncc(C(F)(F)F)c(NCc4ccccc4)n3)ccc2N1 . Fill in?
**Result** > 6.70

**Query** Missing value: pIC50, UniProt:O75385, entry CNC(=O)c1ccccc1Nc1nc(Nc2ccc3c(c2)CC(=O)N3)ncc1Cl . Fill in?
**Result** > 6.70

We next turn to a different molecule, shown below.
**Query** Missing value: pIC50, UniProt:O75385, entry FC(F)(F)c1cnc(Nc2ccc3c(c2)OCCO3)nc1NC1CC1 [158a] . Fill in?
**Result** > 6.70

// data source = patent US10266549B2
